Biological target: T1, PSD-95 PDZ3 domain (human, UniProt P78352 302-402)
T1 construct: PSD-95 (postsynaptic density protein 95) PDZ3, human, UniProt P78352, residues 302-402; codon optimised synthetic gene; Expressed from pET151; His-tag removed with AcTEV protease; 15N-labelled for NMR; also called PDZ3 of PSD-95
T1 sequence (P78352 302-402): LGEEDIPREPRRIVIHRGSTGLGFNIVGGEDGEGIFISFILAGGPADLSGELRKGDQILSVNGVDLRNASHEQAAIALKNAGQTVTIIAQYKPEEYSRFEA
Assay: fluorescence polarisation; dye-labelled peptide against a twofold serial dilution of the protein in PBS (10 mM Na2HPO4, 1.8 mM KH2PO4, pH 7.4, 137 mM NaCl, 2.7 mM KCl), 25°C; one-site total binding fit; triplicate
Conditions: both partners purified
Where no end group is shown, it is not given here. maleimide‑fluorescein = Maleimide-fluorescein dye, coupled to a cysteine thiol
recorded-endpoint: pKd
Units for pKd: none; it is -log10 of a concentration expressed in mol/L.

The binder C(maleimide‑fluorescein)YNRTNRSRMPNLNDLKETAL (single non-native N-terminal cysteine for coupling the dye; ends in -ETAL (957-960); also called CDKL5-1 C-terminal tail peptide; CDKL5 isoform 1 C-terminus; source: synthetic peptide (GLBiochem, Shanghai)) [CDKL5-1^941-960 peptide, fluorescein-labelled] showed pKd equal to 4.39
